Each recorded value in this set is attributed to ChEMBL document CHEMBL1955776.

System: SK-OV-3
protocol: Antitumor activity against human SKOV3 cells co-cultured with mesothelial cell monolayers using D-luciferin as substrate at 10 uM by firefly luciferase reporter gene assay relative to control
Type: functional
The following compounds are shown together with reported Ratio values.
reported property: Ratio

>>> reported("CC(C)(C(=O)NCc1ccc(Cl)cc1)c1ccc(S(=O)(=O)/C=C/C#N)cc1")
0.63
>>> reported("CC(C)(C(=O)NCc1ccccn1)c1ccc(S(=O)(=O)/C=C/C#N)cc1")
0.47
>>> reported("CC(C)(C)c1ccc(S(=O)(=O)/C=C/C(N)=O)cc1")
0.5
>>> reported("C#CCNC(=O)C(C)(C)c1ccc(S(=O)(=O)/C=C/C#N)cc1")
0.93
